Source listed as patent US7279498B2.

- target_under_test: hERG potassium channel (Homo sapiens)
- Construct: expressed in transfected cells; host or cells: CHO-K1 cells
- Sequence (Q12809 whole entry): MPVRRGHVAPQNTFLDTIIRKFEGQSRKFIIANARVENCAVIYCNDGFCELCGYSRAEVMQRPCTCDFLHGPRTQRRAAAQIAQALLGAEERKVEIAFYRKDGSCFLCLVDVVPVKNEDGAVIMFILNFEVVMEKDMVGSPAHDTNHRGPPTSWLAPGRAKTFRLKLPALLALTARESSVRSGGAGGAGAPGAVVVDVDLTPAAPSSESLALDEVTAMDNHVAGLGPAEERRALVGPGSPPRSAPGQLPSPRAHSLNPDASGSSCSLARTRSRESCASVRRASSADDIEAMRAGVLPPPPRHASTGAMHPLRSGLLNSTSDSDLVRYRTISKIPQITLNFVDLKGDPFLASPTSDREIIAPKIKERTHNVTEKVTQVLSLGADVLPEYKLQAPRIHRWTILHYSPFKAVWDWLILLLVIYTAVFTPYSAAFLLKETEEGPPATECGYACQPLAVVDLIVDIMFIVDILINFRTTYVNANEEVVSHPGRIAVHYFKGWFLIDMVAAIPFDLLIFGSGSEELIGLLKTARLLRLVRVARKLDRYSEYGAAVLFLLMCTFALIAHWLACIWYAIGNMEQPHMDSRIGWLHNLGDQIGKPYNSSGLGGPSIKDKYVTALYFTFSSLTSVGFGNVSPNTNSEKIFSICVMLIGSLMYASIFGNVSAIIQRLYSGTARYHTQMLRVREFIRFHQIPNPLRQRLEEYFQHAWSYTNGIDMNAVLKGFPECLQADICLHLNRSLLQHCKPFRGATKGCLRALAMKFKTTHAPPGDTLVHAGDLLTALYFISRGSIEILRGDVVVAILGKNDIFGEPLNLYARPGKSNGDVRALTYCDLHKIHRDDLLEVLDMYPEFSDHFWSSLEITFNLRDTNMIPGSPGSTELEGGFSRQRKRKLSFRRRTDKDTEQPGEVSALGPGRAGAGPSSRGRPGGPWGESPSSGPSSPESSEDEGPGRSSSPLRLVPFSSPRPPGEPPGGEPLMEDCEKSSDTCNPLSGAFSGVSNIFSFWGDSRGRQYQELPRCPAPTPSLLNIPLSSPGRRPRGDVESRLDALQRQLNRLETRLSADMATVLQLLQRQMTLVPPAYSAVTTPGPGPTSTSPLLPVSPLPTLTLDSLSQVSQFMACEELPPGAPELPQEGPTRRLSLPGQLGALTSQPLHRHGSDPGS
- experiment_notes: hERG Potassium Channel Pharmacology Screening (whole-cell patch-clamp, CHO-K1 cells)
- Type: cell-based
- stated_conditions: CHO-K1 cells expressing recombinant human hERG channel, pH 7.4, at 1 uM, read-out: hERG outward current inhibition percentage
endpoint_label: inhibition at 1 µM (%)
Could you give me the number in %? Just the number is fine.

Which inhibition at 1 µM is reported for this compound? `COc1ccc(C(=O)NCc2ccc(NC3=NCCN3)cc2)cc1`
4.3
